The following compounds are listed with their measured Ratio values.
- assay-protocol: Cytotoxicity against human skeletal muscle Myoblast assessed as increase in mitochondrial DNA on day 2 by RT-PCR relative to untreated control
- Assay type: tissue-based, Muscle tissue

| compound | Ratio |
| --- | --- |
| Cc1cn([C@H]2C=C[C@@H](CO)O2)c(=O)[nH]c1=O | 1.2 |
| Nc1ccn([C@@H]2CS[C@H](CO)O2)c(=O)n1 | 1.16 |
| Nc1nc(NC2CC2)c2ncn([C@H]3C=C[C@@H](CO)C3)c2n1.Nc1nc(NC2CC2)c2ncn([C@H]3C=C[C@@H](CO)C3)c2n1.O=S(=O)(O)O [ABACAVIR SULFATE] | 1.19 |
| Cc1cn([C@H]2C[C@H](N=[N+]=[N-])[C@@H](CO)O2)c(=O)[nH]c1=O | 1.45 |

###

- assay-protocol: Cytotoxicity against human skeletal muscle Myoblast assessed as change in Tfam mitochondrial RNA level on day 2 by RT-PCR relative to untreated control
- Format: tissue-based, Muscle tissue
readout-label: Activity

| molecule | readout-label | measured-result |
| --- | --- | --- |
| Cc1cn([C@H]2C=C[C@@H](CO)O2)c(=O)[nH]c1=O | Activity | Non-toxic |
| Nc1nc(NC2CC2)c2ncn([C@H]3C=C[C@@H](CO)C3)c2n1.Nc1nc(NC2CC2)c2ncn([C@H]3C=C[C@@H](CO)C3)c2n1.O=S(=O)(O)O [ABACAVIR SULFATE] | Activity | Non-toxic |
| Nc1ccn([C@@H]2CS[C@H](CO)O2)c(=O)n1 | Activity | Non-toxic |
| O=c1[nH]cnc2c1ncn2[C@H]1CC[C@@H](CO)O1 | Activity | Non-toxic |
| Cc1cn([C@H]2C[C@H](N=[N+]=[N-])[C@@H](CO)O2)c(=O)[nH]c1=O | Activity | Non-toxic |

###

- assay-protocol: Cytotoxicity against human skeletal muscle Myoblast assessed as increase in mitochondrial DNA on day 5 by RT-PCR relative to untreated control
- Format: tissue-based, Muscle tissue
readout-label: Ratio

| compound | readout-label | measured-result |
| --- | --- | --- |
| Nc1ccn([C@@H]2CS[C@H](CO)O2)c(=O)n1 | Ratio | 0.94 |
| Cc1cn([C@H]2C[C@H](N=[N+]=[N-])[C@@H](CO)O2)c(=O)[nH]c1=O | Ratio | 1.14 |
| Nc1nc(NC2CC2)c2ncn([C@H]3C=C[C@@H](CO)C3)c2n1.Nc1nc(NC2CC2)c2ncn([C@H]3C=C[C@@H](CO)C3)c2n1.O=S(=O)(O)O [ABACAVIR SULFATE] | Ratio | 1.07 |
| Cc1cn([C@H]2C=C[C@@H](CO)O2)c(=O)[nH]c1=O | Ratio | 0.98 |

The origin of these recorded values is ChEMBL document CHEMBL1671862.
